So I've got a bunch of compounds here, and I need their t1/2 (min) values.
Experiment: In vitro stability in 50% liver homogenate
Assay type: in vitro ADME, mouse
Settings: 50% w/v mouse liver homogenate in PBS pH 7.4; 37°C; HPLC-UV 220 nm; one phase decay, least square fit; n = 3
Experimental: The samples were analyzed at 40°C on a Phenomenex Lichrosorb RP8 C8 column (4.0 mm × 250 mm, 5 μm), using the gradient elution method on an Agilent HPLC system (Agilent Technologies, Cheadle, UK) equipped with an 1100 series degasser, quaternary pump, autosampler, and column heater, and attached to an Agilent 1200 series PDA detector and a 1250 series fluorescent detector. The flow rate was set at 1.2 mL min^-1, and the injection volume was set at 40 μL, while detection was performed at 220 nm. […]
Residues, ends and D or L forms follow the SMILES beside them.
One number for each entry, in min.

{"Compound": "CCCCCCCCCCCCCC(=O)N[C@@H](CCC(N)=O)C(=O)N[C@@H](Cc1c[nH]cn1)C(=O)N[C@@H](CO)C(=O)N[C@@H](CCC(N)=O)C(=O)N[C@H](C(=O)N[C@H](C(=O)N[C@@H](CCCCN)C(=O)N[C@H](C(=O)O)C(C)C)[C@@H](C)O)[C@@H](C)CC [Mouse Myr-PTEN-PDZ] (HELM PEPTIDE1{[CCCCCCCCCCCCCC(=O)[*:2]].Q.H.S.Q.I.T.K.V}$$$$V2.0)", "t1/2 (min)": 81.66}

Need t1/2 (min) for each of these compounds.
1. CCCCCCCCCCCCCC(=O)N[C@@H](CCC(N)=O)C(=O)N[C@@H](Cc1c[nH]cn1)C(=O)N[C@H](C(=O)N[C@@H](CCC(N)=O)C(=O)N[C@H](C(=O)N[C@H](C(=O)N[C@@H](CCCCN)C(=O)N[C@H](C(=O)O)C(C)C)[C@@H](C)O)[C@@H](C)CC)[C@@H](C)O [Human Myr-PTEN-PDZ] (HELM PEPTIDE1{[CCCCCCCCCCCCCC(=O)[*:2]].Q.H.T.Q.I.T.K.V}$$$$V2.0)
2. CCCCCCCCCCCC(=O)N[C@@H](CCC(N)=O)C(=O)N[C@@H](Cc1c[nH]cn1)C(=O)N[C@@H](CO)C(=O)N[C@@H](CCC(N)=O)C(=O)N[C@H](C(=O)N[C@H](C(=O)N[C@@H](CCCCN)C(=O)N[C@H](C(=O)O)C(C)C)[C@@H](C)O)[C@@H](C)CC [Mouse Lau-PTEN-PDZ] (HELM PEPTIDE1{[CCCCCCCCCCCC(=O)[*:2]].Q.H.S.Q.I.T.K.V}$$$$V2.0)
3. CCCCCCCCCCCC(=O)N[C@@H](CCC(N)=O)C(=O)N[C@@H](Cc1c[nH]cn1)C(=O)N[C@H](C(=O)N[C@@H](CCC(N)=O)C(=O)N[C@H](C(=O)N[C@H](C(=O)N[C@@H](CCCCN)C(=O)N[C@H](C(=O)O)C(C)C)[C@@H](C)O)[C@@H](C)CC)[C@@H](C)O [Human Lau-PTEN-PDZ] (HELM PEPTIDE1{[CCCCCCCCCCCC(=O)[*:2]].Q.H.T.Q.I.T.K.V}$$$$V2.0)

[1110, 57.14, 36.28]

###

So I've got a bunch of compounds here, and I need their k values.
assay: In vitro stability in 50% liver homogenate; type: in vitro ADME, mouse; conditions: 50% w/v CD-1 mouse liver homogenate in PBS pH 7.4; 120 μL of 5 mM DMSO stock in 1080 μL; 37°C, 100 rpm; 0-1440 min; HPLC-UV 220 nm; one phase decay, least square fit; n = 3
Residues, ends and D or L forms follow the SMILES beside them.
Answers are plain numbers, in h⁻¹.

Worked cases, answers included:
{"Compound": "CCCCCCCCCCCC(=O)N[C@@H](CCC(N)=O)C(=O)N[C@@H](Cc1c[nH]cn1)C(=O)N[C@@H](CO)C(=O)N[C@@H](CCC(N)=O)C(=O)N[C@H](C(=O)N[C@H](C(=O)N[C@@H](CCCCN)C(=O)N[C@H](C(=O)O)C(C)C)[C@@H](C)O)[C@@H](C)CC [Mouse Lau-PTEN-PDZ] (HELM PEPTIDE1{[CCCCCCCCCCCC(=O)[*:2]].Q.H.S.Q.I.T.K.V}$$$$V2.0)", "Endpoint value": 0.73}
{"Compound": "CCCCCCCCCCCCCC(=O)N[C@@H](CCC(N)=O)C(=O)N[C@@H](Cc1c[nH]cn1)C(=O)N[C@@H](CO)C(=O)N[C@@H](CCC(N)=O)C(=O)N[C@H](C(=O)N[C@H](C(=O)N[C@@H](CCCCN)C(=O)N[C@H](C(=O)O)C(C)C)[C@@H](C)O)[C@@H](C)CC [Mouse Myr-PTEN-PDZ] (HELM PEPTIDE1{[CCCCCCCCCCCCCC(=O)[*:2]].Q.H.S.Q.I.T.K.V}$$$$V2.0)", "Endpoint value": 0.51}
{"Compound": "CCCCCCCCCCCC(=O)N[C@@H](CCC(N)=O)C(=O)N[C@@H](Cc1c[nH]cn1)C(=O)N[C@H](C(=O)N[C@@H](CCC(N)=O)C(=O)N[C@H](C(=O)N[C@H](C(=O)N[C@@H](CCCCN)C(=O)N[C@H](C(=O)O)C(C)C)[C@@H](C)O)[C@@H](C)CC)[C@@H](C)O [Human Lau-PTEN-PDZ] (HELM PEPTIDE1{[CCCCCCCCCCCC(=O)[*:2]].Q.H.T.Q.I.T.K.V}$$$$V2.0)", "Endpoint value": 1.15}

In one line, give reported k of the entry CCCCCCCCCCCCCC(=O)N[C@@H](CCC(N)=O)C(=O)N[C@@H](Cc1c[nH]cn1)C(=O)N[C@H](C(=O)N[C@@H](CCC(N)=O)C(=O)N[C@H](C(=O)N[C@H](C(=O)N[C@@H](CCCCN)C(=O)N[C@H](C(=O)O)C(C)C)[C@@H](C)O)[C@@H](C)CC)[C@@H](C)O [Human Myr-PTEN-PDZ] (HELM PEPTIDE1{[CCCCCCCCCCCCCC(=O)[*:2]].Q.H.T.Q.I.T.K.V}$$$$V2.0) .
0.04

###

experiment: In vitro stability in 50% v/v mouse plasma; assay type: in vitro ADME; details: male, CD-1, 50% v/v mouse plasma (K3 EDTA) diluted in PBS; 50% v/v mouse plasma in PBS; 37°C; HPLC-UV 220 nm; one phase decay, least square fit; n = 3
Residues, ends and D or L forms follow the SMILES beside them.
Outcome measure: half-life at 0.5 mM (h)
Numbers only, in h.

In one line, give reported half-life at 0.5 mM of the entry CCCCCCCCCCCC(=O)N[C@@H](CCC(N)=O)C(=O)N[C@@H](Cc1c[nH]cn1)C(=O)N[C@@H](CO)C(=O)N[C@@H](CCC(N)=O)C(=O)N[C@H](C(=O)N[C@H](C(=O)N[C@@H](CCCCN)C(=O)N[C@H](C(=O)O)C(C)C)[C@@H](C)O)[C@@H](C)CC [Mouse Lau-PTEN-PDZ] (HELM PEPTIDE1{[CCCCCCCCCCCC(=O)[*:2]].Q.H.S.Q.I.T.K.V}$$$$V2.0) .
5.9

###

test: Permeability across in vitro 2D human blood-brain barrier model; format: in vitro ADME; conditions: read-out: Papp0-4h, Experiment 1
Residues, ends and D or L forms follow the SMILES beside them.
Outcome measure: Papp A→B at 100 μM (×10⁻⁶ cm/s)
One number for each entry, in ×10⁻⁶ cm/s.

In one line, give reported Papp A→B at 100 μM of the entry CCCCCCCCCCCC(=O)N[C@@H](CCC(N)=O)C(=O)N[C@@H](Cc1c[nH]cn1)C(=O)N[C@@H](CO)C(=O)N[C@@H](CCC(N)=O)C(=O)N[C@H](C(=O)N[C@H](C(=O)N[C@@H](CCCCN)C(=O)N[C@H](C(=O)O)C(C)C)[C@@H](C)O)[C@@H](C)CC [Mouse Lau-PTEN-PDZ] (HELM PEPTIDE1{[CCCCCCCCCCCC(=O)[*:2]].Q.H.S.Q.I.T.K.V}$$$$V2.0) .
6.28

###

assay: In vitro stability in 50% brain homogenate; format: in vitro ADME, mouse; details: 50% w/v mouse brain homogenate in PBS pH 7.4; 37°C; HPLC-UV 220 nm; one phase decay, least square fit; n = 3
Residues, ends and D or L forms follow the SMILES beside them.
So I've got a bunch of compounds here, and I need their t1/2 (h) values.
Numbers only, in h.

Worked cases, answers included:
{"Compound": "CCCCCCCCCCCC(=O)N[C@@H](CCC(N)=O)C(=O)N[C@@H](Cc1c[nH]cn1)C(=O)N[C@H](C(=O)N[C@@H](CCC(N)=O)C(=O)N[C@H](C(=O)N[C@H](C(=O)N[C@@H](CCCCN)C(=O)N[C@H](C(=O)O)C(C)C)[C@@H](C)O)[C@@H](C)CC)[C@@H](C)O [Human Lau-PTEN-PDZ] (HELM PEPTIDE1{[CCCCCCCCCCCC(=O)[*:2]].Q.H.T.Q.I.T.K.V}$$$$V2.0)", "t1/2 (h)": 0.36}
{"Compound": "CCCCCCCCCCCCCC(=O)N[C@@H](CCC(N)=O)C(=O)N[C@@H](Cc1c[nH]cn1)C(=O)N[C@@H](CO)C(=O)N[C@@H](CCC(N)=O)C(=O)N[C@H](C(=O)N[C@H](C(=O)N[C@@H](CCCCN)C(=O)N[C@H](C(=O)O)C(C)C)[C@@H](C)O)[C@@H](C)CC [Mouse Myr-PTEN-PDZ] (HELM PEPTIDE1{[CCCCCCCCCCCCCC(=O)[*:2]].Q.H.S.Q.I.T.K.V}$$$$V2.0)", "t1/2 (h)": 0.25}
{"Compound": "CCCCCCCCCCCCCC(=O)N[C@@H](CCC(N)=O)C(=O)N[C@@H](Cc1c[nH]cn1)C(=O)N[C@H](C(=O)N[C@@H](CCC(N)=O)C(=O)N[C@H](C(=O)N[C@H](C(=O)N[C@@H](CCCCN)C(=O)N[C@H](C(=O)O)C(C)C)[C@@H](C)O)[C@@H](C)CC)[C@@H](C)O [Human Myr-PTEN-PDZ] (HELM PEPTIDE1{[CCCCCCCCCCCCCC(=O)[*:2]].Q.H.T.Q.I.T.K.V}$$$$V2.0)", "t1/2 (h)": 0.16}

Read the next record carefully.
In one line, give reported t1/2 (h) of the entry CCCCCCCCCCCC(=O)N[C@@H](CCC(N)=O)C(=O)N[C@@H](Cc1c[nH]cn1)C(=O)N[C@@H](CO)C(=O)N[C@@H](CCC(N)=O)C(=O)N[C@H](C(=O)N[C@H](C(=O)N[C@@H](CCCCN)C(=O)N[C@H](C(=O)O)C(C)C)[C@@H](C)O)[C@@H](C)CC [Mouse Lau-PTEN-PDZ] (HELM PEPTIDE1{[CCCCCCCCCCCC(=O)[*:2]].Q.H.S.Q.I.T.K.V}$$$$V2.0) .
0.20
